test: BSK_hDFCGF_SRB: Viability Assessment in the BioMAP Diversity Plus: hDFCGF Assay (AID 2283061); conditions: primary human foreskin fibroblasts;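 further: cells exposed to compound for 24 h before the read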
Active and inactive are the calls of the source. How the source made its calls: active means hit-call score of the fitted dose curve at least 0.9, where 1 is the maximum; inactive means score below 0.9.
API: response.call in yes (1) (active), no (0) (inactive)

Observe how each entry below is paired with its result.
CCCCCCCCn1sccc1=O : yes (1)
CCOc1cccc(C2(N3CCN(c4ccccc4)CC3)CCC(C)CC2)c1 (stereo not given) : no (0)
c1ccc(N=Nc2ccccc2)cc1 : no (0)
C=CCc1ccc2c(c1)OCO2 : no (0)
CC(C)COC(=O)c1ccccc1C(=O)OCC(C)C : no (0)
C1=Cc2cccc3cccc1c23 : no (0)
C[N+](C)(C)CC1CO1 (stereo not given) : no (0)
O=[N+]([O-])c1ccc(Oc2ccc(Cl)cc2Cl)cc1 : no (0)
ClCCOCCCl : no (0)
CN(C)c1ccccc1 : no (0)

What is the recorded call for this compound in the test? O=C(Nc1ccccc1)c1ccccc1I
no (0)

Field: outcome | Entry: Cc1cc(N=Nc2ccccc2C)ccc1N
yes (1)

What did the test return for CCOC(=O)[C@]1(c2ccccc2)Oc2ccccc2[C@@H]1N ?
yes (1)

For Nc1ccc(Oc2ccc(N)cc2)cc1 , which call appears in the assay record?
no (0)

Outcome logged for CCCCC(CC)COC(=O)c1ccc(C(=O)OCC(CC)CCCC)c(C(=O)OCC(CC)CCCC)c1 (stereo not given) in this assay:
no (0)

====

assay: ATG_Oct_MLP_CIS: Attagene CIS-FACTORIAL HepG2 Assay for human Octamer-Binding Transcription Factor (Oct) (AID 2282993); conditions: HepG2 Attagene cis-factorial Oct reporter, mRNA; actives raise or lower the signal
Activity calls are given as the source filed them. How the source made its calls: active means hit-call score of the fitted dose curve at least 0.9, where 1 is the maximum; inactive means score below 0.9.
Hello, when you answer, please use one of the following outcomes: active, inactive

Answered examples (7):
Nc1ccc(Cl)cc1N : active
ClCCOCCCl : inactive
COP(=S)(OC)SCN1C(=O)c2ccccc2C1=O : inactive
O=[N+]([O-])c1ccc(Oc2ccc(Cl)cc2Cl)cc1 : inactive
O=C(O)C1C2CCC(O2)C1C(=O)O (stereo not drawn) : active
ClC1=C(Cl)C2(Cl)C3C(Cl)C=CC3C1(Cl)C2(Cl)Cl (stereo not drawn) : active
Clc1ccc(C(c2ccc(Cl)cc2)C(Cl)(Cl)Cl)cc1 : inactive

Next:
Outcome? CCCCCCCCCCCCCN1CC(C)OC(C)C1 (stereo not drawn)
inactive

====

test: Tanguay_ZF_120hpf_EYE_legacy: (Legacy) Oregon State University Tanguay Lab 120 Hour Post-fertilization zebrafish Assay for Eye Malformation (AID 2283636);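 further: binary presence or absence of eye malformation scored by brightfield in 120 hpf larvae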
Results filed as inconclusive are left out. The source made the active and inactive calls. Rule for the calls: active = hit-call score of the fitted dose curve at least 0.9, where 1 is the maximum; inconclusive = response in the unintended direction; inactive = score below 0.9.
Pick one and only one: label 1 = active, label 0 = inactive

Worked cases, answers included:
CC(C)(O)c1cnn2c(-c3ccc(F)c(-c4c(F)cccc4C#N)c3)cnc2n1 : label 0
Clc1ccc(C(c2ccc(Cl)cc2)C(Cl)Cl)cc1 : label 0
CCNS(=O)(=O)C(F)(F)C(F)(F)C(F)(F)C(F)(F)C(F)(F)C(F)(F)C(F)(F)C(F)(F)F : label 1
CCOc1cccc(C2(N3CCN(c4ccccc4)CC3)CCC(C)CC2)c1 (stereo not given) : label 0

Just curious, what result did O=C1CCCO1 get here?
label 0

====

Read-out: E-selectin (Homo sapiens)
Assay: BSK_3C_Eselectin: BioMAP Diversity Plus: 3C Assay for Eselectin Biomarker Activity (AID 2283015)
Details: primary human endothelial cells (HUVEC); actives raise or lower the signal
Description: BSK_3C is a cell-based, multiplexed-readout assay that uses umbilical vein endothelium, a human vascular primary cell, with measurements taken at 24 hours after chemical dosing in a 96-well plate.BSK_3C_Eselectin is an assay component measured in the BSK_3C assay. It measures E-selectin antibody related to regulation of gene expression using ELISA technology.Data from the assay component BSK_3C_Eselectin was analyzed into 1 assay endpoint. […]
Calls of active or inactive are those of the source. The calls were made as follows: active = hit-call score of the fitted dose curve at least 0.9, where 1 is the maximum; inactive = score below 0.9.
Returns: one label drawn from active, inactive

Examples from the recorded data:
CCCCCCCCCCCCCN1CC(C)OC(C)C1 (stereo not given) : inactive
CCOC(=O)[C@]1(c2ccccc2)Oc2ccccc2[C@@H]1N : inactive
CCCSC(=O)N(CCC)CCC : inactive
O=C(O)C1C2CCC(O2)C1C(=O)O (stereo not given) : active
O=[N+]([O-])c1ccc(Oc2ccc(Cl)cc2Cl)cc1 : active
OCCCBr : inactive
C=CCc1ccc2c(c1)OCO2 : inactive
COC(=O)Nc1nc2ccccc2[nH]1 : inactive

Identify the outcome logged in this assay for the compound shown: CN(C)c1ccc(C(=O)c2ccc(N(C)C)cc2)cc1
inactive

Identify the outcome logged in this assay for the compound shown: C[N+](C)(C)CC1CO1 (stereo not given)
inactive

====

Assay: APR_HepG2_MitoMass_24hr: Apredica 24-hour HepG2 Assay for Mitochondrial Mass (AID 2282912)
Conditions: high-content imaging, actives raise or lower the signal
Method: APR_HepG2_24hr is a cell-based, multiplexed-readout assay that uses HepG2, a human liver cell line, with measurements taken at 24 hours after chemical dosing in a 384-well plate.APR_HepG2_MitoMass_24hr is one of 10 assay component(s) measured or calculated from the APR_HepG2_24hr assay. […] This assay endpoint, APR_HepG2_MitoMass_24hr, was analyzed with bidirectional fitting relative to DMSO as the negative control and baseline of activity. […]
Activity calls are given as the source filed them. Rule for the calls: active = hit-call score of the fitted dose curve at least 0.9, where 1 is the maximum; inactive = score below 0.9.
Would you mind answering with one of these outcomes? active, inactive

Sample answers from the record:
C[N+](C)(C)CC1CO1 (centres undefined) : inactive
O=C(N[C@H](c1ccccc1)[C@@H]1CN2CCC1CC2)c1c(Cl)ccc(C(F)(F)F)c1Cl : inactive
Oc1ccccc1Cl : inactive

API: the following record is the query input.
Recorded call for CNC(=O)Oc1cccc2c1OC(C)(C)C2 ?
inactive

====

experiment: ATG_CMV_CIS: Attagene CIS-FACTORIAL HepG2 Assay for human CMV (Internal Marker) (AID 2282928); conditions: HepG2 CMV promoter reporter, transcription factor profiling; actives raise or lower the signal;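 further: endpoint acts as a background internal control marker rather than a target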
Activity calls are given as the source filed them. How the source made its calls: active means hit-call score of the fitted dose curve at least 0.9, where 1 is the maximum; inactive means score below 0.9.
I would appreciate it if you answered using one of these outcomes: active, inactive

OCCOCCO : inactive
O=[N+]([O-])c1ccc(Oc2ccc(Cl)cc2Cl)cc1 : active

What classification did O=[N+]([O-])C(Br)(CO)CO end up with in this test?
inactive

====

molecular target: Signal transducer and activator of transcription 3 (Homo sapiens) (UniProt P40763); assay: ATG_STAT3_CIS: Attagene CIS-FACTORIAL HepG2 Assay for human Signal Transducer and Activator of Transcription 3 (STAT3) (AID 2282963); conditions: HepG2, Attagene cis-factorial STAT3 reporter transcription; actives raise or lower the signal
Sequence (P40763 whole entry, looked up): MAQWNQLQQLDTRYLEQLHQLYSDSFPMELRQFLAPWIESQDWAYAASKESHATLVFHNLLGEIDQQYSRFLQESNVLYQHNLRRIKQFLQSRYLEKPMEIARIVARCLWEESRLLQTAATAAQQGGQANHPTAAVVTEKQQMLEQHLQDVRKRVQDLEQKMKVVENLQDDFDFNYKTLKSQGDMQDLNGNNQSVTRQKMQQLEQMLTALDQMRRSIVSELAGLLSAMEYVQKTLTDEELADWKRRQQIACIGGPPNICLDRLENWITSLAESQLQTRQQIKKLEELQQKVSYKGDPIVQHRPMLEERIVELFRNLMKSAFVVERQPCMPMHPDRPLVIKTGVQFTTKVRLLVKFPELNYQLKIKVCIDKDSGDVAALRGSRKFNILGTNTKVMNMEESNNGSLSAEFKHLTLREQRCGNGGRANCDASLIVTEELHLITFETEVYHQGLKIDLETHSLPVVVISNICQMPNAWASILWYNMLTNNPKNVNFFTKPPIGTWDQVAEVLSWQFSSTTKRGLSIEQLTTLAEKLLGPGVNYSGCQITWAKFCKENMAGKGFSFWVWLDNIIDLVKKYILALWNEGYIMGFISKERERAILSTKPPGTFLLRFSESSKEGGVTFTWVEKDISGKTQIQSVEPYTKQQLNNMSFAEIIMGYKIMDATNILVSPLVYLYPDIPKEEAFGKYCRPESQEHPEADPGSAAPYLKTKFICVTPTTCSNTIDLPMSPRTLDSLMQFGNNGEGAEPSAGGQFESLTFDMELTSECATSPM
The source made the active and inactive calls. How the source made its calls: active means hit-call score of the fitted dose curve at least 0.9, where 1 is the maximum; inactive means score below 0.9.
Select the matching outcome among yes (1) for active, no (0) for inactive

CC(C)(C)C(O)(CCc1ccc(Cl)cc1)Cn1cncn1 (configuration not stated) : no (0)

Which outcome did this test record for the compound CCCCOC(=O)c1ccccc1C(=O)OCc1ccccc1 ?
no (0)

State the result this test recorded for Cc1ccc([N+](=O)[O-])cc1 .
no (0)

What is the recorded call for this compound in the test? Clc1ccc(Cl)c(Cl)c1
no (0)

Answer briefly: the call reported for CCCCCCCCn1sccc1=O in this assay.
no (0)

// param item: CC(C)N(Cc1ccccc1)C(=O)C(C)(C)C ; yields the recorded call
no (0)

# fetch the recorded call for CCC12COCN1COC2 here
no (0)

Status in this test for Cn1cc(-c2ccccc2)c(=O)c(-c2cccc(C(F)(F)F)c2)c1 ?
no (0)

What is the recorded call for this compound in the test? COC(=O)c1ccccc1N
no (0)

Record request — test call for C[C@]12C=CC3=C4CCC(=O)C=C4CC[C@H]3[C@@H]1CC[C@@H]2O
no (0)

Call for entry c1ccc(N=Nc2ccccc2)cc1 :
no (0)

# lookup: test call for [Cl-].[Cl-].[Hg+2]
no (0)

Check the results log: what was the call for CCC(C)c1ccc(O)cc1 (configuration not stated) ?
no (0)

Outcome? Nc1ccc([N+](=O)[O-])cc1
no (0)

Entry CC(C)(OOC(C)(C)c1ccccc1)c1ccccc1 : call = ?
yes (1)

Assay outcome for Clc1ccc(C(c2ccc(Cl)cc2)C(Cl)Cl)cc1 : what was it?
no (0)

For ClC1=C(Cl)[C@]2(Cl)[C@H]3[C@H]([C@@H]4C=C[C@H]3C4)[C@@]1(Cl)C2(Cl)Cl , what call appears in the results of this test?
no (0)

Answer briefly: the call reported for CCCSC(=O)N(CCC)CCC in this assay.
no (0)

What is the recorded call for this compound in the test? COc1cc(C=O)cc2c1[C@H](COC(N)=O)[C@]1(OC(C)=O)ON2C[C@H]2[C@@H]1N2C(C)=O
yes (1)

Look up the recorded call for OCCCBr in this test.
no (0)

Answer briefly: the call reported for CC(C)(O)c1cnn2c(-c3ccc(F)c(-c4c(F)cccc4C#N)c3)cnc2n1 in this assay.
no (0)

What outcome does the record of this test show for OCCCl ?
no (0)
